EXPERIMENTAL SYSTEM: T1, Caspase-10 (UniProt Q92851 220-521, limits assumed)
T1 sequence (looked up): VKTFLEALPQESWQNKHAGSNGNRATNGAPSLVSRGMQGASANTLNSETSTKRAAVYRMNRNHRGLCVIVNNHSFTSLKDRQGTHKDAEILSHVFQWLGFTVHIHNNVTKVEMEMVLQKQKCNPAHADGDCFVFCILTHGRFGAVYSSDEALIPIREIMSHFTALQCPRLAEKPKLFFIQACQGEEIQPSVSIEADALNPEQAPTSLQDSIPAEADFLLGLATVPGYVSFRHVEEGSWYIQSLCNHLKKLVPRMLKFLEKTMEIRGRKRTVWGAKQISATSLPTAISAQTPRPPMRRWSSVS
ASSAY PROTOCOL: cell-based or functional assay
Numbered stars: 1 amine (or outer) side, 2 acyl side, 3 side chain; on linkers, the order of the positions; unused ones are H or OH. Square brackets hold non-standard residues; d marks the D form. * marks the point of attachment. CH═CH‑CON(CH2Ph)2 = O=C(/C=C/*)N(Cc1ccccc1)Cc1ccccc1; AAsp = aza-Asp, O=C(N(CC(=O)[*:3])N[*:1])[*:2]; CH═CH‑CON(CH3)CH2Ph = CN(Cc1ccccc1)C(=O)/C=C/*; CH═CH‑COOCH2Ph = O=C(/C=C/*)OCc1ccccc1; CH═CH‑COOEt = CCOC(=O)/C=C/*; Cbz = O=C(OCc1ccccc1)*
Short version: k2 at least 9000 M⁻¹ s⁻¹ is yes, less is no.

INSERT INTO results (binder, classification) VALUES
  ('Cbz-DEV[AAsp]-{CH═CH‑CONHCH2CH2Ph} [Cbz-Asp-Glu-Val-AAsp-CH═CH-CONHCH2CH2Ph]', 'yes'),
  ('Cbz-LET[AAsp]-{CH═CH‑CON(CH2Ph)2} (SMILES CC(C)C[C@H](NC(=O)OCc1ccccc1)C(=O)N[C@@H](CCC(=O)O)C(=O)N[C@H](C(=O)NN(CC(=O)O)C(=O)/C=C/C(=O)N(Cc1ccccc1)Cc1ccccc1)[C@@H](C)O) [Cbz-Leu-Glu-Thr-AAsp-CH═CH-CON(CH2Ph)2]', 'no'),
  ('Cbz-DEV[AAsp]-{CH═CH‑CON(CH3)CH2Ph} (SMILES CC(C)[C@H](NC(=O)[C@H](CCC(=O)O)NC(=O)[C@H](CC(=O)O)NC(=O)OCc1ccccc1)C(=O)NN(CC(=O)O)C(=O)/C=C/C(=O)N(C)Cc1ccccc1) [Cbz-Asp-Glu-Val-AAsp-CH═CH-CON(CH3)CH2Ph]', 'yes'),
  ('Cbz-DEV[AAsp]-{cis‑CH═CH‑COOEt} [Cbz-Asp-Glu-Val-AAsp-CH═CH-COOEt (cis)]', 'yes'),
  ('Cbz-DEV[AAsp]-{CH═CH‑CON(CH2Ph)2} (SMILES CC(C)[C@H](NC(=O)[C@H](CCC(=O)O)NC(=O)[C@H](CC(=O)O)NC(=O)OCc1ccccc1)C(=O)NN(CC(=O)O)C(=O)/C=C/C(=O)N(Cc1ccccc1)Cc1ccccc1) [Cbz-Asp-Glu-Val-AAsp-CH═CH-CON(CH2Ph)2]', 'no'),
  ('Cbz-LET[AAsp]-{CH═CH‑CON(CH3)CH2‑1‑Napth} [Cbz-Leu-Glu-Thr-AAsp-CH═CH-CON(CH3)CH2-1-Napth]', 'yes'),
  ('Cbz-DEV[AAsp]-{CH═CH‑COPh} [Cbz-Asp-Glu-Val-AAsp-CH═CH-COPh]', 'no'),
  ('Cbz-LET[AAsp]-{CH═CH‑CON(CH3)CH2Ph} (SMILES CC(C)C[C@H](NC(=O)OCc1ccccc1)C(=O)N[C@@H](CCC(=O)O)C(=O)N[C@H](C(=O)NN(CC(=O)O)C(=O)/C=C/C(=O)N(C)Cc1ccccc1)[C@@H](C)O) [Cbz-Leu-Glu-Thr-AAsp-CH═CH-CON(CH3)CH2Ph]', 'no'),
  ('Cbz-Val-[AAsp]-{CH═CH‑COOEt} [Cbz-Val-AAsp-CH═CH-COOEt]', 'no'),
  ('Cbz-LET[AAsp]-{CH═CH‑CONHCH2‑4‑F‑Ph} [Cbz-Leu-Glu-Thr-AAsp-CH═CH-CONHCH2-4-F-Ph]', 'yes'),
  ('Cbz-DEV[AAsp]-{CH═CH‑CONHCH2‑4‑F‑Ph} [Cbz-Asp-Glu-Val-AAsp-CH═CH-CONHCH2-4-F-Ph]', 'yes'),
  ('Cbz-LET[AAsp]-{CH═CH‑CONHCH2Ph} [Cbz-Leu-Glu-Thr-AAsp-CH═CH-CONHCH2Ph]', 'yes'),
  ('Cbz-LET[AAsp]-{CH═CH‑COOCH2Ph} (SMILES CC(C)C[C@H](NC(=O)OCc1ccccc1)C(=O)N[C@@H](CCC(=O)O)C(=O)N[C@H](C(=O)NN(CC(=O)O)C(=O)/C=C/C(=O)OCc1ccccc1)[C@@H](C)O) [Cbz-Leu-Glu-Thr-AAsp-CH═CH-COOCH2Ph]', 'yes');
